Experiment: logP by HPLC on reversed-phase column (C 18), EEC Directive 79/831 Annex V.A8
Assay type: physicochemical
Procedure: In table 1, the logP values were determined in accordance with EEC Directive 79/831 Annex V.A8 by HPLC (High Performance Liquid Chromatography) on a reversed-phase column (C 18), using the method described below: Temperature: 40° C.; […]
logP values for the molecules below.
MEASUREMENT_NAME: logP

SMILES_RECORD	MEASUREMENT_NAME	RECORDED_RESULT
Cn1nc(C(F)F)c(C(=O)NCC(C)(C)c2ccc(Cl)cc2)c1F	logP	3.37
Cc1cc(C)c(CCN(C(=O)c2c(C(F)F)nn(C)c2Cl)C(C)C)c(C)c1	logP	4.49
Cn1nc(C(F)F)c(C(=O)NCCc2ccccc2C(F)(F)F)c1F	logP	2.92
Cn1nc(C(F)F)c(C(=O)N(C[Si](C)(C)c2ccsc2)C2CC2)c1Cl	logP	3.71
Cn1nc(C(F)F)c(C(=O)NCCc2ccccc2Oc2ccccc2)c1Cl	logP	3.64

// data source = patent US9232799B2
